Data credit: patent US20060112494A1

# Tested on: collagenase
# assayConditions: Conc. 0.075%, day 4
observedProperty: Collagenase Activity/Days 4

> print(dat)
                          chemicalstructure             observedproperty  observedresult
1  O=C([O-])CN(CCN(CC(=O)[O-])CC(=O)O)CC(=O)[O-].[Na+].[Na+].[Na+]  Collagenase Activity/Days 4             +++
2  O=C([O-])CN(CCN(CC(=O)[O-])CC(=O)[O-])CC(=O)[O-].[Na+].[Na+].[Na+].[Na+]  Collagenase Activity/Days 4             +++
3  O=C([O-])CN(CCN(CC(=O)O)CC(=O)O)CC(=O)[O-].[Na+].[Na+]  Collagenase Activity/Days 4            ++++
4  O=C(O)CN(CCOCCOCCN(CC(=O)O)CC(=O)O)CC(=O)O  Collagenase Activity/Days 4            ++++

* * *

# System: collagenase
# assayConditions: Conc. 0.3%, day 4
observedProperty: Collagenase Activity/Days 4

> print(dat)
                                   compound             observedproperty  observedresult
1  O=C([O-])CN(CCN(CC(=O)[O-])CC(=O)O)CC(=O)[O-].[Na+].[Na+].[Na+] [Na3EDTA]  Collagenase Activity/Days 4               +
2  O=C(O)CN(CCOCCOCCN(CC(=O)O)CC(=O)O)CC(=O)O [Na4EGTA]  Collagenase Activity/Days 4               +
3  O=C([O-])CN(CCN(CC(=O)[O-])CC(=O)[O-])CC(=O)[O-].[Na+].[Na+].[Na+].[Na+] [Na4EDTA]  Collagenase Activity/Days 4               +
4  O=C([O-])CN(CCN(CC(=O)O)CC(=O)O)CC(=O)[O-].[Na+].[Na+] [Na2EDTA]  Collagenase Activity/Days 4               0

* * *

# Tested on: collagenase
# assayConditions: Conc. 0.4%, day 2
observedProperty: Collagenase Activity/Days 2

> print(dat)
                                   compound  observedresult
1  O=C(O)CN(CCOCCOCCN(CC(=O)O)CC(=O)O)CC(=O)O [Na4EGTA]               0
2  O=C([O-])CN(CCN(CC(=O)[O-])CC(=O)[O-])CC(=O)[O-].[Na+].[Na+].[Na+].[Na+] [Na4EDTA]               +
3  O=C([O-])CN(CCN(CC(=O)[O-])CC(=O)O)CC(=O)[O-].[Na+].[Na+].[Na+] [Na3EDTA]               0
4  O=C([O-])CN(CCN(CC(=O)O)CC(=O)O)CC(=O)[O-].[Na+].[Na+] [Na2EDTA]               0

* * *

# Test system: mixed bacteria on fresh hide samples
# Parameters: key to the marks not given beside the values
# assayConditions: Conc. 0.3%, day 4
observedProperty: Growth/Days 4

> print(dat)
                          chemicalstructure  observedproperty  observedresult
1  O=C([O-])CN(CCN(CC(=O)[O-])CC(=O)O)CC(=O)[O-].[Na+].[Na+].[Na+]     Growth/Days 4             +++
2  O=C([O-])CN(CCN(CC(=O)O)CC(=O)O)CC(=O)[O-].[Na+].[Na+]     Growth/Days 4            ++++
3  O=C([O-])CN(CCN(CC(=O)[O-])CC(=O)[O-])CC(=O)[O-].[Na+].[Na+].[Na+].[Na+]     Growth/Days 4            ++++
4  O=C(O)CN(CCOCCOCCN(CC(=O)O)CC(=O)O)CC(=O)O     Growth/Days 4            ++++

* * *

# Test system: mixed bacteria on fresh hide samples
# assayConditions: Conc. 0.5%, day 1
observedProperty: Growth/Days 1

> print(dat)
                                   molecule  observedresult
1  O=C(O)CN(CCOCCOCCN(CC(=O)O)CC(=O)O)CC(=O)O [Na4EGTA]             +++
2  O=C([O-])CN(CCN(CC(=O)O)CC(=O)O)CC(=O)[O-].[Na+].[Na+] [Na2EDTA]               0
3  O=C([O-])CN(CCN(CC(=O)[O-])CC(=O)O)CC(=O)[O-].[Na+].[Na+].[Na+] [Na3EDTA]              ++
4  O=C([O-])CN(CCN(CC(=O)[O-])CC(=O)[O-])CC(=O)[O-].[Na+].[Na+].[Na+].[Na+] [Na4EDTA]            ++++

* * *

The entries below come with measured Collagenase Activity/Days 4 values attached.
# System: collagenase
# assayConditions: Conc. 0.4%, day 4
observedProperty: Collagenase Activity/Days 4

> print(dat)
                          chemicalstructure  observedresult
1  O=C(O)CN(CCOCCOCCN(CC(=O)O)CC(=O)O)CC(=O)O               0
2  O=C([O-])CN(CCN(CC(=O)[O-])CC(=O)O)CC(=O)[O-].[Na+].[Na+].[Na+]               0
3  O=C([O-])CN(CCN(CC(=O)O)CC(=O)O)CC(=O)[O-].[Na+].[Na+]               0

* * *

The entries below come with measured Collagenase Activity/Days 1 values attached.
# Tested on: collagenase;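 further: nutrient agar containing 0.5% Azocoll with inhibitor, topped by a fresh hide piece, kept at 30 °C, collagenase from hide bacteria scored visually as clearing zone around growth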
# assayConditions: Conc. 0.075%, day 1
observedProperty: Collagenase Activity/Days 1

> print(dat)
                          chemicalstructure  observedresult
1  O=C(O)CN(CCOCCOCCN(CC(=O)O)CC(=O)O)CC(=O)O               0
2  O=C([O-])CN(CCN(CC(=O)[O-])CC(=O)O)CC(=O)[O-].[Na+].[Na+].[Na+]               0

* * *

# Tested on: mixed bacteria on fresh hide samples
# assayConditions: Conc. 0.2%, day 1
observedProperty: Growth/Days 1

> print(dat)
                          chemicalstructure  observedresult
1  O=C(O)CN(CCOCCOCCN(CC(=O)O)CC(=O)O)CC(=O)O            ++++
2  O=C([O-])CN(CCN(CC(=O)O)CC(=O)O)CC(=O)[O-].[Na+].[Na+]               0
3  O=C([O-])CN(CCN(CC(=O)[O-])CC(=O)O)CC(=O)[O-].[Na+].[Na+].[Na+]            ++++
4  O=C([O-])CN(CCN(CC(=O)[O-])CC(=O)[O-])CC(=O)[O-].[Na+].[Na+].[Na+].[Na+]            ++++

* * *

# Test system: mixed bacteria on fresh hide samples
# Set-up: key to the marks not given beside the values
# assayConditions: Conc. 0.4%, day 2
observedProperty: Growth/Days 2

> print(dat)
                                   compound  observedresult
1  O=C([O-])CN(CCN(CC(=O)[O-])CC(=O)[O-])CC(=O)[O-].[Na+].[Na+].[Na+].[Na+] [Na4EDTA]            ++++
2  O=C([O-])CN(CCN(CC(=O)O)CC(=O)O)CC(=O)[O-].[Na+].[Na+] [Na2EDTA]             +++
3  O=C(O)CN(CCOCCOCCN(CC(=O)O)CC(=O)O)CC(=O)O [Na4EGTA]            ++++
4  O=C([O-])CN(CCN(CC(=O)[O-])CC(=O)O)CC(=O)[O-].[Na+].[Na+].[Na+] [Na3EDTA]            ++++

* * *

# System: mixed bacteria on fresh hide samples;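 further: fresh hide pieces laid on inhibitor-containing nutrient agar supplemented with 0.5% Azocoll, incubated at 30 °C, then scored for growth of bacteria originating from the hide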
# Parameters: key to the marks not given beside the values
# assayConditions: Conc. 0.025%, day 2
observedProperty: Growth/Days 2

> print(dat)
                                   molecule  observedproperty  observedresult
1  O=C([O-])CN(CCN(CC(=O)O)CC(=O)O)CC(=O)[O-].[Na+].[Na+] [Na2EDTA]     Growth/Days 2            ++++
2  O=C([O-])CN(CCN(CC(=O)[O-])CC(=O)O)CC(=O)[O-].[Na+].[Na+].[Na+] [Na3EDTA]     Growth/Days 2            ++++
3  O=C(O)CN(CCOCCOCCN(CC(=O)O)CC(=O)O)CC(=O)O [Na4EGTA]     Growth/Days 2            ++++
4  O=C([O-])CN(CCN(CC(=O)[O-])CC(=O)[O-])CC(=O)[O-].[Na+].[Na+].[Na+].[Na+] [Na4EDTA]     Growth/Days 2            ++++
